The measured values listed here are drawn from patent US20190127480A1.

Could you please report measured T½ for the items listed next?
- measured-on: T1, Soluble heterodimeric CD3 protein (hCD3-epsilon/hCD3-delta) with either a human Fc tag (hFcΔAdp/hFc) or a … (human, UniProt P07766 23-126; P04234 22-105)
- T1 construct: also called hCD3ε/δ; not shown: Fc tag: human (hFcΔAdp/hFc)
- experiment-summary: SPR Biacore 25C antibody-capture
Report only the number, with the unit min understood.

Kindly note the recorded T½ for H1H5791B (antibody, human IgG1, V domains shown, H1H: human IgG1 Fc; divalent) VH: QVQLVESGAEVKKPGASVKVSCKTSGYTLSGYYMHWMRQAPGQGLEWMGWINPKSGVTNYAQKFQDRVAMTRDTSISTAYMELSRLRSDDTAVYYCARMGDGAVFDFWAQGTLVTVSS VL: DIQLTQSPSSLSASVGDRVTITCRASQRISSFLNWYQQKPGKAPKLLIYTASNLQNGVPSRFSGSGSGTDFTLTISSLQPEDFATYYCQQSYRTPLTFGGGTKLEIKR , which is 15

Kindly note the recorded T½ for H1H5757B (antibody, human IgG1, V domains shown, H1H: human IgG1 Fc; divalent) VH: EVQLVESGGGVVQPGRSLRLSCAASGFTFSSYGMHWVRQAPGKGLEWVTVILHDGSNRYSADSVKGRFTISRDNSKNTLYLQMNILRVEDTAVYYCTKGAMVRGVPYNHYYGMDVWGQGTTVTVSS VL: DIQMTQSPSSLSASVGDRVTITCRASQGIRNDLGWYQQKPGKAPKRLIYAASILQSGVPSRFSGSGSGTEFTLTISSLQPEDFATYYCLQHNSYPYTFGQGTKLEIKR , which is 15

Kindly note the recorded T½ for H1H5780P (antibody, human IgG1, V domains shown, H1H: human IgG1 Fc; divalent) VH: EVQLVESGGGLVQPGRSLRLSCAASGFTFDDYAMHWVRQAPGKGLEWVSGISWNGGSKDYADSVKGRFTISRDNTRNSLSLQMNSLRIEDTALYYCAKDKSGYGSFYYGLDVWGQGTTVTVSS VL: EIVLTQSPGTLSLSPGDRATLSCRASQSIRSIYLAWYQQKPGQAPRLLIHGASTRATGIPDRFSGSGSGTDFTLTISRLEPEDFAVYYCQQRVSSPYTFGQGTKLEIK , which is 29

Kindly note the recorded T½ for H1H5755B (antibody, human IgG1, V domains shown, H1H: human IgG1 Fc; divalent) VH: EVQLVESGGGVVQPGRSLRLSCAASGFTFSNYGMHWVRQAPGKGLEWVTVILHDGSYKYYADSVKGRFTISRDNSKNTLHLQMNSLRTEDTAVYYCAKGPMFRGVPYNHYYGMDVWGQGTTVTVSS VL: DIQMTQSPSSLSASVGDRVTITCRASQGIRNDLGWYQQKPGKAPKRLIYAASSLQSGVSSRFSGSGSGTEFTLTISSLQPEDFATYYCLQHNSYPYTFGQGTKVEIKR , which is 24

Kindly note the recorded T½ for H1H5772S (antibody, V domains shown, H1H: human IgG1 Fc; divalent; also called H1H5772P) VH: QVQLVESGGGLVQPGRSLRLSCAASGFSFDDYAMHWVRQAPGQGLEWVSGISWNGGSRDYADSVKGRFTISRDNARNSLFLQMNSLFTEDTALYYCAKDKSGYGSYFYGMDVWGQGTTVTVSS VL: EIVLTQSPGILSLSPGDRATLSCRASQSIRNIYLAWYQQKPGQAPRLLIHGASTRATGIPDRFSGSGSGTDFTLTISRLEPEDFAVYYCQQRVSSPYTFGQGTKLEIK , which is 7

Kindly note the recorded T½ for H1H5764P (antibody, human IgG1, V domains shown, H1H: human IgG1 Fc; divalent) VH: QVQLVESGGGVVQPGRSLRLSCAASGFTFRSFGMHWVRQAPGKGLEWVAVISYDGNYKYYADSVKGRFTISRDNSKNTLYLQMNSLRAEDTAVHYCAKGAMVRGVPYNFYYGMDVWGQGTTVTVSS VL: DIQMTQSPSSLSASVGDRVTITCRASQVIRNDLGWYQQKPGKAPKRLIYAASSLQSGIPSRFSGSGSGTEFTLTISSLQPEDFATYYCLQHNSYPYTFGQGTKLEIK , which is 1
